Measured SPOT intensity accompanies every entry in the list below.
- measured on: T1, Bzz1-2, P38822
- T1 sequence (P38822 568-633, looked up): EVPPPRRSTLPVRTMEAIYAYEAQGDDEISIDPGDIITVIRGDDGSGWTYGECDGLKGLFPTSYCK
- procedure summary: SPOT array
- test context: median of control spots 4538
Please reply with the number alone, leaving off any unit.

// below: answered binders
Short answer for `QPQRTAPKPPISAPR` : SPOT intensity was 2

Short answer for `RPVPPPPPMRTTTEG` : SPOT intensity was 664

Short answer for `RLSRLLLSLPPESFT` : SPOT intensity was 4

Continuing:
Short answer for `GTIARPLFLVVLFFI` : SPOT intensity was 0
